# procedure.text: yeast display, Sf9 membrane polyspecificity reagent, FACS + sequencing; frameworks hold sequencing errors
assay.readout: polyreactivity (PSR sort gate)

biosequence: QVQLVESGGGLVQAGGSLRLSCAASGLTFVYYAMGWYRQAPGKERELVAAISESGTSTYYADSVKGRFTISRDNAKNTVYLQMNSLKPEDTAVYYCAAKDSYYEMDYWGQGTQVTVSS
assay.readout: polyreactivity (PSR sort gate)
experimental.result: high polyreactivity
--
biosequence: QVHLVESGGGLVQAGGSLRLSCAASGSTFYYTAMGWYRQPPGKESELVAAISRGGGSTYYADSVKGRFTISRDNAKNTVYVQMNSLKPEDTAVYYCAARRVGGGFYTWRNPAYEYWGQGTQVTVSS
assay.readout: polyreactivity (PSR sort gate)
experimental.result: high polyreactivity

Data provenance is the nanobody polyreactivity screen of Harvey et al. (2022).
